This listing pairs compounds with measured inhibition.
- Tested on: Plasmodium falciparum
- Method: Inhibition of Plasmodium falciparum protein farnesyltransferase at 0.5 nM by scintillation proximity assay
Value kind: inhibition (%)

{"columns": ["Compound", "Target of assay", "Value kind", "Reported result"],
 "data": [
  ["Cn1cncc1CN1CC(N(CCn2ccnc2)S(=O)(=O)c2ccccn2)Cc2cc(C#N)ccc21 (configuration not stated)", "Plasmodium falciparum", "inhibition", 67],
  ["Cn1cncc1CN1CC(N(Cc2ccc(S(C)(=O)=O)cc2)S(=O)(=O)c2ccccc2)Cc2cc(C#N)ccc21 (configuration not stated)", "Plasmodium falciparum", "inhibition", 38],
  ["Cn1cncc1CN1CC(N(Cc2cccc(C(=O)O)n2)S(=O)(=O)c2ccccn2)Cc2cc(C#N)ccc21 (configuration not stated)", "Plasmodium falciparum", "inhibition", 24],
  ["Cn1cnc(S(=O)(=O)N(CCc2ccccc2C(F)(F)F)C2Cc3cc(C#N)ccc3N(Cc3cncn3C)C2)c1 (configuration not stated)", "Plasmodium falciparum", "inhibition", 8],
  ["CCC(C)NC(=O)c1ccc2c(c1)CC(N(CC(=O)NC(C)(C)C)S(=O)(=O)c1cn(C)cn1)CN2Cc1cncn1C (configuration not stated)", "Plasmodium falciparum", "inhibition", 0],
  ["Cn1cnc(S(=O)(=O)N(Cc2ccc(C#N)cc2)C2Cc3cc(C#N)ccc3N(Cc3cncn3C)C2)c1 (configuration not stated)", "Plasmodium falciparum", "inhibition", 54],
  ["Cn1cnc(S(=O)(=O)N(Cc2ccc3nonc3c2)C2Cc3cc(C#N)ccc3N(Cc3cncn3C)C2)c1 (configuration not stated)", "Plasmodium falciparum", "inhibition", 30],
  ["Cn1cncc1CN1CC(N(Cc2ccccc2F)C(=O)c2cnns2)Cc2cc(C#N)ccc21 (configuration not stated)", "Plasmodium falciparum", "inhibition", 13],
  ["Cn1cncc1CN1CC(N(CCN)S(=O)(=O)c2ccccn2)Cc2cc(C#N)ccc21 (configuration not stated)", "Plasmodium falciparum", "inhibition", 6],
  ["CC(=O)Nc1ccc(S(=O)(=O)N(Cc2ccccc2F)C2Cc3cc(C#N)ccc3N(Cc3cncn3C)C2)cc1 (configuration not stated)", "Plasmodium falciparum", "inhibition", 4],
  ["Cn1cnc(CN2CC(N(CCn3cccc3)S(=O)(=O)c3cn(C)cn3)Cc3cc(-c4ccccc4)ccc32)c1 (configuration not stated)", "Plasmodium falciparum", "inhibition", 0],
  ["Cn1cnc(S(=O)(=O)N(CCN)C2Cc3cc(C#N)ccc3N(Cc3cncn3C)C2)c1 (configuration not stated)", "Plasmodium falciparum", "inhibition", 0],
  ["COC(=O)NCCN(C1Cc2cc(C#N)ccc2N(Cc2cncn2C)C1)S(=O)(=O)c1ccccn1 (configuration not stated)", "Plasmodium falciparum", "inhibition", 14],
  ["Cn1cncc1CN1CC(N(Cc2ccc(S(C)(=O)=O)cc2)S(=O)(=O)c2ccccc2Cl)Cc2cc(C#N)ccc21 (configuration not stated)", "Plasmodium falciparum", "inhibition", 16],
  ["COC(=O)NCCCN(C1Cc2cc(C#N)ccc2N(Cc2cncn2C)C1)S(=O)(=O)c1cn(C)cn1 (configuration not stated)", "Plasmodium falciparum", "inhibition", 61],
  ["Cn1cnc(S(=O)(=O)N2CCC(CN(C3Cc4cc(C#N)ccc4N(Cc4cncn4C)C3)S(=O)(=O)c3ccccn3)CC2)c1 (configuration not stated)", "Plasmodium falciparum", "inhibition", 60],
  ["C=C(C)C(=O)N1CCC(CN(C2Cc3cc(C#N)ccc3N(Cc3cncn3C)C2)S(=O)(=O)c2ccccn2)CC1 (configuration not stated)", "Plasmodium falciparum", "inhibition", 92]
]}
